Data provenance is PubChem BioAssay AID1845216.

- Tested on: SW 982 tumor spheroid viability
- Experiment Description: Anticancer human tumor SW 982 cell line growth inhibition;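 further: spheroids exposed to compound for 7 days before readout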
- Measurement Context: curve of first compound; second compound 0.00949 µM; spheroids with HUVEC and MSC
Exercise: for every item that follows, state its recorded pIC50.
Give bare numbers, as −log10 of the molar value.

Examples from the recorded data:
- Compound: "CC(C)n1c(=O)n(C)c2cnc3cc(F)c(-c4ccc(OCCCN5CCCCC5)nc4)cc3c21 + CC[C@@]1(O)C(=O)OCc2c1cc1n(c2=O)Cc2cc3c(CN(C)C)c(O)ccc3nc2-1"
  Experimental Endpoint: "pIC50"
  Numeric Value: 5.82
- Compound: "O=C(c1cc(Cc2n[nH]c(=O)c3ccccc23)ccc1F)N1CCN(C(=O)C2CC2)CC1 + CC[C@@]1(O)C(=O)OCc2c1cc1n(c2=O)Cc2cc3c(CN(C)C)c(O)ccc3nc2-1"
  Experimental Endpoint: "pIC50"
  Numeric Value: 4.65
- Compound: "COc1ccc([C@@H](O)c2cc(-c3ncnc4cc(N5CCOCC5)ccc34)c(F)cc2Cl)nn1 + CC[C@@]1(O)C(=O)OCc2c1cc1n(c2=O)Cc2cc3c(CN(C)C)c(O)ccc3nc2-1"
  Experimental Endpoint: "pIC50"
  Numeric Value: 5.67

Kindly consider the entry below.
Sure, the documented pIC50 for CNCc1ccc(-c2cc(-c3nc(-c4ccc(S(=O)(=O)C(C)C)cc4)cnc3N)on2)cc1 + CC[C@@]1(O)C(=O)OCc2c1cc1n(c2=O)Cc2cc3c(CN(C)C)c(O)ccc3nc2-1 is 6.68
